The measurements presented in this section are drawn from patent EP4803151A2.

Biological target: T1, ECD of human DLL3 over-expressed on HEK293 cells (human, UniProt Q9NYJ7 27-492)
T1 construct: extracellular domain; also called HEK293-hDLL3; human DLL3 expressed on HEK293 cells
T1 sequence (looked up): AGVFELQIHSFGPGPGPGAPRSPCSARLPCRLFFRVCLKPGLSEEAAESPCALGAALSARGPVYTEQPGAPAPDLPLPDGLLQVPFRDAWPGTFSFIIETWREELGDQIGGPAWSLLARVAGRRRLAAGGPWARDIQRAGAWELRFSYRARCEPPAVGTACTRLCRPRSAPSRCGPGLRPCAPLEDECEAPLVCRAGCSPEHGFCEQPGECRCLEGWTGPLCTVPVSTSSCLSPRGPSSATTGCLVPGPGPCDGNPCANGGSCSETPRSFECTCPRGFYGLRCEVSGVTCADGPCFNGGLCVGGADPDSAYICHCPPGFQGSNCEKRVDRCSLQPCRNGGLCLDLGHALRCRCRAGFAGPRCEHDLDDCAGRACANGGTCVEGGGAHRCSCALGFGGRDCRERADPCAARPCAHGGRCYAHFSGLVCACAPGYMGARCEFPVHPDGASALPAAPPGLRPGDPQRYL
Test: flow cytometry on HEK293-hDLL3 cells

BINDER | binding result
148C3A7-hIgG1 chimeric antibody (antibody, V domains shown) VH: EVQLQQSGPELIKPGTSVKMSCKASGYTFTTYLMHWVKQKPGQGLEWIGYINPYNDVTEYHEKFKDKATLTSDKSSSTAYMELSSLTSEDSAVYYCARLGGYGPGWYLDVWGAGTTVTVSS VL: DIQMTQSPASLSASVGETVTITCRASGSIHNYLAWYLHKQGKSPQLLVYNAKTLADGVPSRFSGSGSGTQYSLKINSLQPEDFGSYYCHHFWSTPWTFGGGTKLEIKR | binds
310P3C5-z15p20 PTM removed humanized antibody (antibody, V domains shown, variable regions fused to the constant region of human IgG1) VH: QVQLVQSGAEVKKPGASVKVSCKASGYTFTDFYMNWVKQAPGQGLEWIGDANPNWGGTTHNPRFKGRATLTVDKSASTAYMELRSLRSEDTAVYYCARGGLPGDFDYWGQGTTVTVSS VL: DIQMTQSPSSLSASVGDRVTITCKASEDIYNRLAWYQQKPGKAPKLLISGVTSLETGVPSRFSGSGSGTDFTFTISSLQPEDIATYYCQQYWSFPWTFGGGTKVEIK | binds
310P3C5-z14 humanized antibody (antibody, human IgG1, kappa, V domains shown, HU-VH2 with HU-VL1-1; human IgG1) VH: QVQLVQSGAEVKKPGASVKVSCKASGYTFTDFYMNWVKQAPGQGLEWIGDANPNNGGTTHNPRFKGRATLTVDKSASTAYMELRSLRSEDTAVYYCARGGLPGDFDYWGQGTTVTVSS VL: DIQMTQSPSSVSASVGDRVTITCKASEDIYNRLAWYQQKPGKAPKLLIYGVTSLETGVPSRFSGSGSGTDFTLTISSLQPEDFATYYCQQYWSFPWTFGGGTKVEIKR | binds
310P3C5-z8 humanized antibody (antibody, human IgG1, kappa, V domains shown, HU-VH1-4 with HU-VL1-2; human IgG1) VH: QVQLVQSGAEVKKPGASVKVSCKASGYTFTDFYMNWVRQAPGQGLEWIGDANPNNGGTTHNPRFKGQATLTVDKSTSTAYMELRSLRSDDTAVYYCARGGLPGDFDYWGQGTTVTVSS VL: DIQMTQSPSSVSASVGDRVTITCKASEDIYNRLAWYQQKPGKAPKLLISGVTSLETGVPSRFSGSGSGTDFTLTISSLQPEDFATYYCQQYWSFPWTFGGGTKVEIKR | binds
